Origin of the recorded values: patent US20200199204A1

Target: HIV-1 Env of CAP210.E8 (HIV-1)
Assay: cell-based or functional assay

| binder | unit.annotation | neutralization IC50 |
| --- | --- | --- |
| CAP256-VRC26.09 (antibody, V domains shown) VH: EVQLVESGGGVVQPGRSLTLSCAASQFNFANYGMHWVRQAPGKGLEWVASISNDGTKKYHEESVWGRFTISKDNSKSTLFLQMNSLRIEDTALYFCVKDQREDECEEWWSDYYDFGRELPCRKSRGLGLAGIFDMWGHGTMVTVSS VL: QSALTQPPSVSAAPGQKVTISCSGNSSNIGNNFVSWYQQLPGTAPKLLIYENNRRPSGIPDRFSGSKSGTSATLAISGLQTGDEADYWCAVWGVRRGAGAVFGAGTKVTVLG | µg/mL | 0.002 |
| CAP256-VRC26.01 (antibody, V domains shown) VH: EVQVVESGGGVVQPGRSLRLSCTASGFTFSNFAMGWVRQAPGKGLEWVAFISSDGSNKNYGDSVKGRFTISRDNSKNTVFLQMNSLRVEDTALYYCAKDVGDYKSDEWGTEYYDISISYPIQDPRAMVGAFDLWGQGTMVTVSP VL: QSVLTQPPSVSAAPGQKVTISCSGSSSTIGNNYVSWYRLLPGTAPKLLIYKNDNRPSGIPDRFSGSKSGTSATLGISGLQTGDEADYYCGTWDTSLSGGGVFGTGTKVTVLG | µg/mL | 0.217 |
| CAP256-VRC26.03 (antibody, V domains shown) VH: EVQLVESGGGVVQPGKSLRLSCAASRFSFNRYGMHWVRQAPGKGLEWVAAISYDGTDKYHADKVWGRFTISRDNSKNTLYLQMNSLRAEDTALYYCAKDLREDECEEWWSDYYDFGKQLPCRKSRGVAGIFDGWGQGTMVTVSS VL: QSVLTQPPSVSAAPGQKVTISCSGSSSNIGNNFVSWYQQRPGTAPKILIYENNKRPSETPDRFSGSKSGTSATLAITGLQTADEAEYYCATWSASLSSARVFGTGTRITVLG | µg/mL | 0.011 |
| CAP256-VRC26.06 (antibody, V domains shown) VH: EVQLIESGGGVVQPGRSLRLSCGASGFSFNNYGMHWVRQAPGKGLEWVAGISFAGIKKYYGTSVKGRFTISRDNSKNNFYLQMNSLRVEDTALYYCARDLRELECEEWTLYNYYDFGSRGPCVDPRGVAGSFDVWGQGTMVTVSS VL: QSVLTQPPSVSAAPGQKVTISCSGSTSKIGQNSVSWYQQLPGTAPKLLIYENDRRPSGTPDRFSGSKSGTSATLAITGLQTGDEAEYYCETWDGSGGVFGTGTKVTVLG | µg/mL | 0.729 |
